Taken from the supplement of paper PMC10338343.

System: EfPiwi piRISC loaded with L1MC piRNA (26 nt)
Experiment: pre-steady-state target cleavage rate (min^-1); auxiliary factor: 500 nM Ephydatia muelleri Gtsf1; guide: L1MC piRNA 5'p-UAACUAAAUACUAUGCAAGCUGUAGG; higher = faster piRNA-guided slicing of the target
Item-by-item account of pre-steady-state target cleavage rate
Property label: pre-steady-state target cleavage rate

seq=UCCUGCUACAGCUUGCAUAGAAUAUAGUUA property_label="pre-steady-state target cleavage rate" endpoint_result=0.00332
seq=UCCUGCUCACAGCUUGCAUAGUAUUUAGUUA property_label="pre-steady-state target cleavage rate" endpoint_result=0.072
seq=UCCUGGAACUGCUUGCAUAGUAUUUAGUAA property_label="pre-steady-state target cleavage rate" endpoint_result=0.00308
seq=UCCUGCUACAGCUUGUAUAGUAUUUAGUUA property_label="pre-steady-state target cleavage rate" endpoint_result=0.029
seq=UCCUGCUACAGCUUGCAUAGUUAUUUAGUUA property_label="pre-steady-state target cleavage rate" endpoint_result=0.00578
seq=UCCUGGAUCAGCUUGCACUAGUAUUUAGUUA property_label="pre-steady-state target cleavage rate" endpoint_result=0.00365
seq=UCCUGGAACGCUUGCAUAGUAUUUAGUUA property_label="pre-steady-state target cleavage rate" endpoint_result=0.0259
seq=UCCUGGAUCAGCUUGCAUAGUAGUUUAGUUA property_label="pre-steady-state target cleavage rate" endpoint_result=0.0107
seq=UCCUGCUACAGCUUGCAUCGUAUUUAGUUA property_label="pre-steady-state target cleavage rate" endpoint_result=0.0091
seq=UCCUGGAUGUGCUUGCAUAGUACUUAGUUA property_label="pre-steady-state target cleavage rate" endpoint_result=0.00522
seq=UCCUGCUACUGCUAGCAUAGUAUUUAGUUA property_label="pre-steady-state target cleavage rate" endpoint_result=0.0129
seq=UCCUCCUACAGGUUGCAUACUAUUUAGUUA property_label="pre-steady-state target cleavage rate" endpoint_result=0.00612
seq=UCCUCCUACAGCUUGCAUAGUAAUUUGUUA property_label="pre-steady-state target cleavage rate" endpoint_result=0.00652
seq=UCCUGGUACAGCUUGCUUAGUAUUUAGAUA property_label="pre-steady-state target cleavage rate" endpoint_result=0.00305
seq=UCCUCCUACAGCUUGCAUAGUAUGUUAGUUA property_label="pre-steady-state target cleavage rate" endpoint_result=0.00459
seq=UCCUGCUACAGCUAGCAUAGUAUUUAGUUA property_label="pre-steady-state target cleavage rate" endpoint_result=0.0287
seq=UCCUGGUACAGCAUGCAUAGUAUUAAGUUA property_label="pre-steady-state target cleavage rate" endpoint_result=0.00442

* * *

Test system: MILI (PIWIL2) piRISC loaded with piRNA #1 (26 nt);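 further: 1 nM active piRISC with 0.1 nM target library at 33 °C single turnover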
Assay: pre-steady-state target cleavage rate (min^-1); guide: piRNA #1 5'p-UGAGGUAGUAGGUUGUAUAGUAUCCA; higher = faster piRNA-guided slicing of the target
Settings: auxiliary factor: 500 nM mouse GTSF1
Property label: pre-steady-state target cleavage rate

seq=GGAGACCUUACUAUACAACCUACUAGCACA endpoint_result=0.0607
seq=GGAGACCUUACUAUACAACCGACUACCUCA endpoint_result=0.00424
seq=GGAGACGAUACUUUACAACCUACUACGUCA endpoint_result=0.0766
seq=GGAGUGGAUACUAUACUACCUACAACCUCA endpoint_result=0.117
seq=GGAGACCUAACUAUACAACCUACUUCCUGA endpoint_result=0.0081
seq=GGAGACCUAACUAUACAACCUACUACCUA endpoint_result=0.0998
seq=GGAGACCUAUCUAGUACAACCUACUACCUCA endpoint_result=0.0316
seq=GGAGACCUAUCUAUUCAACCUACUAGCUCA endpoint_result=0.0826
seq=GGAGACCUAUGUUUACAACCUACUACCUCA endpoint_result=0.0117
seq=GGAGACCUAUGAUUACAACCUACUAGCCUCA endpoint_result=0.00776
seq=GGAGACCUAUCUAUACAAGCUACUACCACA endpoint_result=0.278
seq=GGAGAGGAUACUAUACAACUACUACCUCA endpoint_result=0.0329
seq=GGAGACCUUACUAUAGAAGCUACUACCUCA endpoint_result=0.134
seq=GGAGACGGAUACUAUACAACCUACUACCUCA endpoint_result=0.234
seq=GGAGACCUAUGAUAACAACCUACUACUUCA endpoint_result=0.00299
seq=GGAGACGAUACUAUACAACCUACUACAUCA endpoint_result=0.0978
seq=GGAGACCUAUCAAUACAAGCUACUACCUCA endpoint_result=0.108
seq=GGAGACCUAUGAUAACAUCCUACUUCCUCA endpoint_result=0.00421
seq=GGAGACCUUACUAUACAACCUACAACCACA endpoint_result=0.0494
seq=GGAGACCUAUCUAUACAACGAACUACCUCA endpoint_result=0.00423
seq=GGAGACCUAACUAUACAACCUACAACCUGA endpoint_result=0.00865
seq=GGAGUGGAUACUAUACAACCGUACUACCUCA endpoint_result=0.00369
seq=GGAGACGAAACUAUACAACCUACUACGUCA endpoint_result=0.0713
seq=GGAGAGGAUACUAUACUACCUACUACGUCA endpoint_result=0.0806
seq=GGAGACCAUAGUAUACAACCUACAACCUCA endpoint_result=0.129
seq=GGAGACCUAACUAUACAAGCUACAACCUCA endpoint_result=0.182
seq=GGAGAGGAUACUAUACAACUUACUACCUCA endpoint_result=0.0186
seq=GGAGUGGAUACUAUAUAACCUACUACCUCA endpoint_result=0.191
seq=GGAGACCUAUCUAUACAAGCUACAACCUCA endpoint_result=0.169
seq=GGAGACCAUACUAUACAACCUACUACGUGA endpoint_result=0.115
seq=GGAGACCUAUGUAUACAACCUACUUCCUCA endpoint_result=0.0381
seq=GGAGACCUUUCUAUACAACCUACUACCUGA endpoint_result=0.0728
seq="GGAGACCUAUGAUAACAACCUACUACCUCC [g2:g16:cont:t1C]" endpoint_result=0.00493
seq=GGAGACGAUACUAUACAAUCUACUACCUCA endpoint_result=0.131
seq=GGAGACGAUACUAUACAACGUACUUCCUCA endpoint_result=0.0234
seq=GGAGAGGAUACUAUACAACCUCACUACCUCA endpoint_result=0.00456
seq=GGAGACCUAUGACUACAACCUACUACCUCA endpoint_result=0.00416
seq=GGAGACCAUACUUUACAACCUAGUACCUCA endpoint_result=0.119
seq=GGAGACGAUACUUUACAACGUACUACCUCA endpoint_result=0.0294
seq=GGAGUGGAUACUAUAGAACCUACAACCUCA endpoint_result=0.0134

* * *

System: EfPiwi piRISC loaded with L1MC piRNA (26 nt)
Assay: pre-steady-state target cleavage rate (min^-1); auxiliary factor: 500 nM Ephydatia muelleri Gtsf1; guide: L1MC piRNA 5'p-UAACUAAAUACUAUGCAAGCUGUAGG; higher = faster piRNA-guided slicing of the target
Quick reference: pre-steady-state target cleavage rate of the listed items.
Property label: pre-steady-state target cleavage rate

seq=UCCUGGAACAGCUUGCAUAGUAUUAAGAUA endpoint_result=0.00257
seq=UCCUGGAUCAGCUUGCAUAGUAUAUAGUAA endpoint_result=0.00291
seq=UCCUGGUACAGCUUGCAAAGUAAUUAGUUA endpoint_result=0.00305
seq=UCCUGGUAGAGCUUGCAUAGUAUUUAGUUA endpoint_result=0.0138
seq=UCCUGGAUCACCUUGCAUAGUAUUUAGUUA endpoint_result=0.018
seq=UCCUCCUACAGCUUGGAUAGUUUUUAGUUA endpoint_result=0.0265

* * *

System: MILI (PIWIL2) piRISC loaded with L1MC piRNA (26 nt);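 further: 1 nM active piRISC with 0.1 nM target library at 33 °C single turnover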
Experiment: pre-steady-state target cleavage rate (min^-1); guide: L1MC piRNA 5'p-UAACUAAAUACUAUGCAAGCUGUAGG; MIWI and MILI are mouse PIWI proteins and EfPiwi is from a freshwater sponge; tags in brackets are library labels; higher = faster piRNA-guided slicing of the target
Settings: auxiliary factor: none (no GTSF1)
Property label: pre-steady-state target cleavage rate

seq=UCCUGCUACAGCUACCAUAGUAUUUAGUUA property_label="pre-steady-state target cleavage rate" value_comparator== endpoint_result=0.0038
seq=UCCUGGUACAGCUUGCAUAGUAUUUUCUAA property_label="pre-steady-state target cleavage rate" value_comparator== endpoint_result=0.00383
seq=UCCUCGCUACAGCUUGCAUAGUAUUUAGUUA property_label="pre-steady-state target cleavage rate" value_comparator== endpoint_result=0.00839
seq=UCCUGGAUGUGCUUGCGUAGUAUUUAGUUA property_label="pre-steady-state target cleavage rate" value_comparator== endpoint_result=0.0145
seq=UCCUGGAUGUGCUUGCUAAGUAUUUAGUUA property_label="pre-steady-state target cleavage rate" value_comparator== endpoint_result=0.00546
seq=UCCUGGAACAGCUAGGAUAGUAUUUAGUUA property_label="pre-steady-state target cleavage rate" value_comparator== endpoint_result=0.00746
seq=UCCUGGAUCAGCUAGCAUAGUAUUUAGUAA property_label="pre-steady-state target cleavage rate" value_comparator== endpoint_result=0.00665
seq=UCCUGGAUCAGCUACCAUAGUAUUUAGUUA property_label="pre-steady-state target cleavage rate" value_comparator== endpoint_result=0.00343
seq=UCCUGGUACAGCUUGCUUUGUAUUUAGUUA property_label="pre-steady-state target cleavage rate" value_comparator== endpoint_result=0.0068
seq=UCCUGGUACAGCUUGCAUACUAUUUAGUUA property_label="pre-steady-state target cleavage rate" value_comparator== endpoint_result=0.00577
seq=UCCUGGAUCAGCAUGCAUAGUAUAUAGUUA property_label="pre-steady-state target cleavage rate" value_comparator== endpoint_result=0.00579
seq=UCCUGGAUGUCGAAGCAUUGUAUAUAGUUA property_label="pre-steady-state target cleavage rate" value_comparator=< endpoint_result=0.0001
seq="UCCUGGAUGUGCUUGCAUAGUAUUUAGUUA [g2:g20:cont:t1A]" property_label="pre-steady-state target cleavage rate" value_comparator== endpoint_result=0.00984
seq=UCCUGGAUGUGCUGGCAUAGUAUUUAGUUA property_label="pre-steady-state target cleavage rate" value_comparator== endpoint_result=0.0112
seq=UCCUCCUAACAGCUUGCAUAGUAUUUAGUUA property_label="pre-steady-state target cleavage rate" value_comparator== endpoint_result=0.0084
seq=UCCUGGAACAGCUUGGAUAGUAUUUUGUUA property_label="pre-steady-state target cleavage rate" value_comparator== endpoint_result=0.00404
seq=UCCUCCAACAGCUUGCAUAGUAUUUAGUUA property_label="pre-steady-state target cleavage rate" value_comparator== endpoint_result=0.00861
seq=UCCUCCUUCACCUUGCAUAGUAUUUAGUUA property_label="pre-steady-state target cleavage rate" value_comparator== endpoint_result=0.00635
seq=UCCUGGAUGUCGAUGCAUAGUAGUUAGUUA property_label="pre-steady-state target cleavage rate" value_comparator== endpoint_result=0.00415
seq=UCCUGGAUGUCGUUCCAAAGUAUUUAGUUA property_label="pre-steady-state target cleavage rate" value_comparator=< endpoint_result=0.0001
